System: NCI-H358 cells (K-Ras G12C)
measurement protocol: CellTiter-Glo cell viability, NCI-H358
Format: cell-based, human
test settings: Homo sapiens, NCI-H358, 120 h, K-Ras G12C, 5-day treatment; read-out: H358 Cell Viability IC50
Parameter: IC50. Scope: all listed entries.
measured property: IC50

# compound, obs value
data = [
    ("CCn1c(-c2cccnc2[C@H](C)OC)c2c3cc(ccc31)-c1csc(n1)C[C@H](NC(=O)[C@H](C(C)C)N(C)C(=O)C1COC1)C(=O)N1CCC[C@H](N1)C(=O)OCC(C)(C)C2 [Compound A245]", "100 to 1000 nM"),
    ("CCn1c(-c2cnccc2COC)c2c3cc(ccc31)-c1cc(O)cc(c1)C[C@H](NC(=O)[C@H](C(C)C)N(C)C(=O)CCCCN)C(=O)N1CCC[C@H](N1)C(=O)OCC(C)(C)C2 [Compound A66]", "1000 to 10000 nM"),
    ("CCn1c(-c2cccnc2[C@H](C)OC)c2c3cc(ccc31)-c1csc(n1)C[C@H](NC(=O)[C@H](C(C)C)N(C)C(=O)O[C@H]1CCN(C)C1)C(=O)N1CCC[C@H](N1)C(=O)OCC(C)(C)C2 [Compound A173]", "100 to 1000 nM"),
    ("CCn1c(-c2cccnc2[C@H](C)OC)c2c3cc(ccc31)-c1csc(n1)C[C@H](NC(=O)[C@H](C(C)C)N(C)C(=O)N1CC[C@H]1CN(C)C)C(=O)N1CCC[C@H](N1)C(=O)OCC(C)(C)C2 [Compound A508]", "100 to 1000 nM"),
    ("CCn1c(-c2cnccc2COC)c2c3cc(ccc31)-c1cc(O)cc(c1)C[C@H](NC(=O)[C@H](C(C)C)N(C)C(=O)[C@H]1CCCN1C)C(=O)N1CCC[C@H](N1)C(=O)OCC(C)(C)C2 [Compound A83]", "1000 to 10000 nM"),
    ("CCn1c(-c2cnccc2COC)c2c3cc(ccc31)-c1cc(O)cc(c1)C[C@H](NC(=O)[C@H](C(C)C)N(C)C(=O)c1ncc[nH]1)C(=O)N1CCC[C@H](N1)C(=O)OCC(C)(C)C2 [Compound A64]", "100 to 1000 nM"),
    ("CCn1c(-c2cccnc2[C@H](C)OC)c2c3cc(ccc31)-c1cc(O)cc(c1)C[C@H](NC(=O)[C@H](C(C)C)N(C)C(=O)C1CCc3ncccc3C1)C(=O)N1CCC[C@H](N1)C(=O)OCC(C)(C)C2 (stereo partly drawn) [Compound A247]", "10 to 100 nM"),
    ("CCn1c(-c2cccnc2[C@H](C)OC)c2c3cc(ccc31)-c1csc(n1)C[C@H](NC(=O)[C@H](C(C)C)N(C)C(=O)N1CC(CN(C)C)C1)C(=O)N1CCC[C@H](N1)C(=O)OCC(C)(C)C2 [Compound A576]", "10 to 100 nM"),
    ("CCn1c(-c2cnccc2COC)c2c3cc(ccc31)-c1cc(O)cc(c1)C[C@H](NC(=O)[C@H](C(C)C)N(C)C(=O)CNC(=N)N)C(=O)N1CCC[C@H](N1)C(=O)OCC(C)(C)C2 [Compound A68]", "> 10000 nM"),
    ("CCn1c(-c2cccnc2[C@H](C)OC)c2c3cc(ccc31)-c1csc(n1)C[C@H](NC(=O)[C@H](C(C)C)N(C)C(=O)N1CCN(C(=O)[C@H]3CCCN3C)CC1)C(=O)N1CCC[C@H](N1)C(=O)OCC(C)(C)C2 [Compound A595]", "10 to 100 nM"),
    ("CCn1c(-c2cccnc2[C@H](C)OC)c2c3cc(ccc31)-c1cc(O)cc(c1)C[C@H](NC(=O)[C@H](C(C)C)N(C)C(=O)C1CC1)C(=O)N1CCC[C@H](N1)C(=O)OCC(C)(C)C2 [Compound A224]", "10 to 100 nM"),
    ("CCn1c(-c2cnccc2COC)c2c3cc(ccc31)-c1cc(O)cc(c1)C[C@H](NC(=O)[C@H](C(C)C)N(C)C(=O)[C@@H](C)O)C(=O)N1CCC[C@H](N1)C(=O)OCC(C)(C)C2 [Compound A92]", "1000 to 10000 nM"),
    ("CCn1c(-c2cccnc2[C@H](C)OC)c2c3cc(ccc31)-c1csc(n1)C[C@H](NC(=O)[C@H](C(C)C)N(C)C(=O)N1CC3(CCOCC3)C1)C(=O)N1CCC[C@H](N1)C(=O)OCC(C)(C)C2 [Compound A521]", "10 to 100 nM"),
    ("CCn1c(-c2cnccc2COC)c2c3cc(ccc31)-c1cc(O)cc(c1)C[C@H](NC(=O)[C@H](C(C)C)N(C)C(=O)CN/C(N)=N/C#N)C(=O)N1CCC[C@H](N1)C(=O)OCC(C)(C)C2 [Compound A62]", "> 10000 nM"),
    ("CCn1c(-c2cccnc2[C@H](C)OC)c2c3cc(ccc31)-c1csc(n1)C[C@H](NC(=O)[C@H](C(C)C)N(C)C(=O)N(C)[C@H]1CCCN(C)C1)C(=O)N1CCC[C@H](N1)C(=O)OCC(C)(C)C2 [Compound A588]", "10 to 100 nM"),
    ("CCn1c(-c2cccnc2[C@H](C)OC)c2c3cc(ccc31)-c1cc(O)cc(c1)C[C@H](NC(=O)[C@H](C(C)C)N(C)C(=O)[C@H]1CCN(C(C)=O)C1)C(=O)N1CCC[C@H](N1)C(=O)OCC(C)(C)C2 [Compound A5]", "100 to 1000 nM"),
    ("CCn1c(-c2cnccc2COC)c2c3cc(ccc31)-c1cc(O)cc(c1)C[C@H](NC(=O)[C@H](C(C)C)N(C)c1ncco1)C(=O)N1CCC[C@H](N1)C(=O)OCC(C)(C)C2 [Compound A52]", "1000 to 10000 nM"),
    ("CCn1c(-c2cccnc2[C@H](C)OC)c2c3cc(ccc31)-c1csc(n1)C[C@H](NC(=O)[C@H](C(C)C)N(C)C(=O)N(C)[C@@H]1CCCN(C)C1)C(=O)N1CCC[C@H](N1)C(=O)OCC(C)(C)C2 [Compound A587]", "10 to 100 nM"),
]
